Experimental system: CDK16 (Homo sapiens, UniProt Q00536, S319D)
Construct: kinase domain, CDK16 163–478, C-terminal His tag
Sequence (Q00536 163-478 S319D): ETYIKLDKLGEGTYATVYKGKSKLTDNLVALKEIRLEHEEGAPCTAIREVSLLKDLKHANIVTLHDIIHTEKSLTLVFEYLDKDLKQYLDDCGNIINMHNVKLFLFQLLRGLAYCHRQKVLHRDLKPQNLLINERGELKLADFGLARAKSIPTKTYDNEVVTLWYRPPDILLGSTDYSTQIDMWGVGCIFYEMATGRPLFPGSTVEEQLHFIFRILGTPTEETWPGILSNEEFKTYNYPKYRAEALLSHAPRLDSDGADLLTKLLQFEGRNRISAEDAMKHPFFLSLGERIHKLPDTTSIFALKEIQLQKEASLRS
Procedure details: biochemical
Design: Differential scanning fluorimetry (SYPRO Orange), 2 uM CDK16, Tm shift versus 2.5% DMSO control
Condition description: read-out: Tm shift (°C)
Experimental: Thermal melting experiments were performed using a Real-Time PCR machine Mx3005p (Stratagene) as described previously. Briefly, 2 μM CDK16 was screened against a collection of kinase inhibitors in a 96-well plate format. […] Data were analysed with the MxPro software. […] To identify protein constructs suitable for structural studies, human CDK16 was recombinantly expressed in E. coli with a variety of N- and C-terminal truncations. […]
Measurement label: ΔTm at 12.5 µM (°C)

O=C(Nc1c[nH]nc1-c1nc2ccc(CN3CCOCC3)cc2[nH]1)NC1CC1: 5.7
N#CCCc1ccc2c(c1)-c1[nH]c3ccc([N+](=O)[O-])cc3c1CC(=O)N2: 7.9
O=C(O[C@H]1CN[C@H](C#Cc2cc3ncnc(Nc4ccc(Cc5ccccc5)cc4)c3s2)C1)N1CCOCC1 [GSK238583A]: 5.8
